TESTED SYSTEM: hα2C receptor (Homo sapiens)
Construct: expressed in transfected cells; host or cells: CHO cells, stably transfected; membrane preparation
Sequence (P18825 whole entry): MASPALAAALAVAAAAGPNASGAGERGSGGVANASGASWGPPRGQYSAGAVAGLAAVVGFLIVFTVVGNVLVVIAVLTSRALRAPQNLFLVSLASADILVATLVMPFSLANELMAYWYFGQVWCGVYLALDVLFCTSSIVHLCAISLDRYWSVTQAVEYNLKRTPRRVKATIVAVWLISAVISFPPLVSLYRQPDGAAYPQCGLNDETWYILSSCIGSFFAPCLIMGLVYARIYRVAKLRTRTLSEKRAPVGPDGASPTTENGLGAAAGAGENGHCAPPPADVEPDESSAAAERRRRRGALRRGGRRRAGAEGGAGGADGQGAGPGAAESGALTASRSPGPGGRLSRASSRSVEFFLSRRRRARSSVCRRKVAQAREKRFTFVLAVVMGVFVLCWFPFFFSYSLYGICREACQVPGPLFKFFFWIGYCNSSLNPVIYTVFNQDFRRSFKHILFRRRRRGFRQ
METHOD: Radioligand binding experiment for α2C-adrenoceptor ([3H]raulwolscine, CHO cell membranes)
ASSAY SETUP: [3H]raulwolscine binding, read-out: h-α2C pIC50 (converted)
PARAMETER MEASURED: IC50 (nM)

[[record]]
compound = "C/C(=C\\c1ccccc1)CN1CCC(N(C)c2nccn(CCCO)c2=O)CC1"
tested_system = "hα2C receptor (Homo sapiens)"
value = 39.8

[[record]]
compound = "C/C(=C\\c1ccccc1)CN1CCC(Nc2nccn(CC(=O)c3ccc4c(c3)NC(=O)CO4)c2=O)CC1"
tested_system = "hα2C receptor (Homo sapiens)"
value = 20

[[record]]
compound = "CCCNC(=O)Cn1ccnc(NC2CCN(C/C(C)=C/c3ccccc3)CC2)c1=O"
tested_system = "hα2C receptor (Homo sapiens)"
value = 10

[[record]]
compound = "COC(=O)CN(C)C(=O)Cn1ccnc(NC2CCN(C/C(C)=C/c3ccccc3)CC2)c1=O"
tested_system = "hα2C receptor (Homo sapiens)"
value = 10

[[record]]
compound = "C/C(=C\\c1ccccc1)CN1CCC(Nc2nccn(-c3ccccn3)c2=O)CC1 [6-10]"
tested_system = "hα2C receptor (Homo sapiens)"
value = 3.16

[[record]]
compound = "O=c1c(NC2CCN(C/C=C/c3ccccc3)CC2)nccn1Cc1cccc(Br)c1"
tested_system = "hα2C receptor (Homo sapiens)"
value = 200

[[record]]
compound = "CCN(CC)c1ccc(C(=O)Cn2ccnc(NC3CCN(C/C(C)=C/c4ccccc4)CC3)c2=O)cc1"
tested_system = "hα2C receptor (Homo sapiens)"
value = 12.6

[[record]]
compound = "O=c1c(NC2CCN(C/C=C/c3ccccc3)CC2)nccn1CC1CCCCC1"
tested_system = "hα2C receptor (Homo sapiens)"
value = 316


I. C/C(=C\c1ccccc1)CN1CCC(Nc2nccn(-c3cccnc3)c2=O)CC1
II. C/C(=C\c1ccccc1)CN1CCC(Nc2nccn(CC#CCN3C(=O)c4ccccc4C3=O)c2=O)CC1 [2-54]
III. COCCNC(=O)c1ccc(-n2ccnc(NC3CCN(C/C(C)=C/c4ccccc4)CC3)c2=O)cc1
Order the items by recorded IC50; the first position goes to the largest value. Answer format: the labels, in the requested order. I, III, II
(I: 25.1 nM, III: 12.6 nM, II: 6.31 nM)

###

TESTED SYSTEM: hα2A receptor (Homo sapiens, UniProt P08913)
Construct: expressed in transfected cells; host or cells: CHO cells, stably transfected; membrane preparation
Sequence (P08913 whole entry): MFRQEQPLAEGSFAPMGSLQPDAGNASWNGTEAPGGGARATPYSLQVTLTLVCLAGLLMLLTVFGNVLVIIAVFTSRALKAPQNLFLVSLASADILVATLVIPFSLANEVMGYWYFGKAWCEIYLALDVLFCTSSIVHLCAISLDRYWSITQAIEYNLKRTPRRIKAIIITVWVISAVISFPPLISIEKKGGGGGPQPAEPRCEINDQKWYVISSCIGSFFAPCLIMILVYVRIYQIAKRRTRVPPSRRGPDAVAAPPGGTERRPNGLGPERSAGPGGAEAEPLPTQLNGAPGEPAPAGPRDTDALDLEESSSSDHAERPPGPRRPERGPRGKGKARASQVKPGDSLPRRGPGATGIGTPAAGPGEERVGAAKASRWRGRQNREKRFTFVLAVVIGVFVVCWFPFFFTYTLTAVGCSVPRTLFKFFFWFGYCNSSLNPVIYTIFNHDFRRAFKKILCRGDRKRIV
METHOD: Radioligand binding experiment for α2A-adrenoceptor ([3H]raulwolscine, CHO cell membranes)
ASSAY SETUP: [3H]raulwolscine binding, read-out: h-α2A pIC50 (converted)
PARAMETER MEASURED: IC50 (nM)

These solved cases illustrate the format of a correct answer.
[[record]]
molecule = "C/C(=C\\c1ccccc1)CN1CCC(Nc2nccn(CCc3ccccc3)c2=O)CC1"
parameter_measured = "IC50"
value = 100

[[record]]
molecule = "C/C(=C\\c1ccccc1)CN1CCC(Nc2nccn(CCn3cccc3)c2=O)CC1"
parameter_measured = "IC50"
value = 200

[[record]]
molecule = "C/C(=C\\c1ccccc1)CN1CCC(Nc2nccn(CC(=O)N(C)CCN(C)Cc3ccccc3)c2=O)CC1"
parameter_measured = "IC50"
value = 50.1

[[record]]
molecule = "C/C(=C\\c1ccccc1)CN1CCC(Nc2nccn(-c3ccc(C(=O)O)cc3)c2=O)CC1"
parameter_measured = "IC50"
value = 631


1. C/C(=C\c1ccccc1)CN1CCC(Nc2nccn(Cc3ccc(CNS(=O)(=O)c4c(C)noc4C)cc3)c2=O)CC1
2. C/C(=C\c1ccccc1)CN1CCC(Nc2nccn(CC(=O)c3ccccc3)c2=O)CC1
Please indicate which item has the smaller measured IC50: 1 versus 2 Please identify the chosen entry by its label. 2
(2: 15.8 nM, 1: 158 nM)

I. C/C(=C\c1ccccc1)CN1CCC(Nc2nccn(CCCN(CC(=O)c3ccccc3)Cc3ccccc3)c2=O)CC1
II. CC(=O)c1ccc(-n2ccnc(NC3CCN(C/C(C)=C/c4ccccc4)CC3)c2=O)cc1
III. C/C(=C\c1ccccc1)CN1CCC(Nc2nccn(Cc3ccc(CNC(=O)Cc4ccccc4)cc3)c2=O)CC1
Order the items by recorded IC50; the first position goes to the largest value. Answer format: the labels, in the requested order. I, III, II

P. C/C(=C\c1ccccc1)CN1CCC(Nc2nccn(Cc3ccc(F)cc3)c2=O)CC1
Q. C/C(=C\c1ccccc1)CN1CCC(Nc2nccn(-c3cccc(NC(=O)c4cccc(F)c4)c3)c2=O)CC1
Please indicate which item has the smaller measured IC50: P versus Q Please identify the chosen entry by its label. Q
(Q: 20 nM, P: 158 nM)

P. C/C(=C\c1ccccc1)CN1CCC(Nc2nccn(Cc3cccc(CN4CCOCC4)c3)c2=O)CC1
Q. COC(=O)CN(C)C(=O)Cn1ccnc(NC2CCN(C/C(C)=C/c3ccccc3)CC2)c1=O
Returns: the argument ( P or Q ) having the larger IC50. Please identify the chosen entry by its label. Q

P. COc1ccc(-c2nnc(Cn3ccnc(N4CCN(C/C(C)=C/c5ccccc5)CC4)c3=O)o2)cc1
Q. C/C(=C\c1ccccc1)CN1CCC(Nc2nccn(CCOc3ccccc3)c2=O)CC1
Please indicate which item has the smaller measured IC50: P versus Q Please identify the chosen entry by its label. P

1. C/C(=C\c1ccccc1)CN1CCC(Nc2nccn(CC(=O)N3CCN(Cc4ccccc4)CC3)c2=O)CC1
2. C/C(=C\c1ccccc1)CN1CCC(Nc2nccn(CCCN(Cc3ccccc3)S(C)(=O)=O)c2=O)CC1
Please indicate which item has the smaller measured IC50: 1 versus 2 Please identify the chosen entry by its label. 1

A. C/C(=C\c1ccccc1)CN1CCC(Nc2nccn(CC(=O)Nc3ccc(F)cc3)c2=O)CC1
B. C/C(=C\c1ccccc1)CN1CCC(Nc2nccn(CC(=O)N(CCN3CCCC3C)Cc3ccc(F)cc3)c2=O)CC1 (centres unmarked)
Please indicate which item has the smaller measured IC50: A versus B Please identify the chosen entry by its label. B
(B: 7.94 nM, A: 100 nM)
